Tested on: NO generated by LPS-induced macrophages
assay-details: Nitric oxide assay (Griess) in LPS-induced macrophages
Type: cell-based, murine
test-context: Mus musculus, Macrophage, 18 h, 100 µM, LPS 1 µg/mL; read-out: % NO Production (Mean ± SEM)
Method: A Griess reagent, a spectrophotometric determination of nitrite level, was carried out to measure the nitrite level in the conditioned medium of macrophages treated with lipopolysaccharide (LPS). Sodium nitrite (NaNO2) was used as a standard compound for the standard curve (Figure 8). The NO concentrations were obtained using the standard curve equation: y = 0.0083x + 0.0017, R^2 = 0.9999, where y is the absorbance at 540 nm and x is the NO concentration in µM. […]
Label rule, in plain words: activity at 100 µM of 20% and up is rule met, under 20% is rule not met.

Before answering, review these 2 worked examples.
CC(=O)N(CN1CCCc2ccccc21)c1ccc(O)cc1; rule not met
CN1C(C(=O)Nc2ccccn2)=C(O)c2ccccc2S1(=O)=O [Piroxicam, reference compound]; rule not met

For this compound, is measured activity at 100 µM 20% or higher? CCN(CC)CN1CCCc2ccccc21
rule met

Okay, and CN1CCN(CN2CCCc3ccccc32)CC1 ?
rule met

Okay, and CC(=O)N(CN1CCCc2ccccc21)c1ccccc1 ?
rule met

Okay, and c1ccc2c(c1)CCCN2CN1CCNCC1 ?
rule met

---

Test system: brine shrimp nauplii
assay-details: Brine shrimp lethality bioassay
Assay type: in vivo
test-context: 24 h, n = 3
Procedure: Brine shrimp eggs were hatched in a shallow rectangular plastic dish and filled with artificial seawater, which was prepared with a commercial salt mixture. In a 96-well plate, 150 µL of artificial seawater was added and 10 nauplii were added into this. […] The number of surviving shrimps were counted and recorded after 24 h. […] The percentage mortality (%M) was also calculated by dividing the number of dead nauplii by the total number and then multiplied by 100.
Item-by-item account of LD50 ± SEM (brine shrimp lethality)
A number alone suffices; assume µg/mL.

# example entries with known answers
CC(=O)N(CN1CCCc2ccccc21)c1ccc(O)cc1 [SF13]; 204
c1ccc2c(c1)CCCN2CN1CCOCC1 [SF2]; 141.4
CCCN(CCC)CN1CCCc2ccccc21 [SF4]; 100

Hello, I am looking for reported LD50 ± SEM (brine shrimp lethality) with brine shrimp nauplii for c1ccc(N(CN2CCCc3ccccc32)c2ccccc2)cc1 [SF7] . Could you help?
100.8

Okay, and Brc1ccc(NCN2CCCc3ccccc32)cc1 [SF9] ?
139

Okay, and CN1CCN(CN2CCCc3ccccc32)CC1 [SF5] ?
94

Okay, and CC(=O)N(CN1CCCc2ccccc21)c1ccccc1 [SF10] ?
196.1

Okay, and COc1cccc2c1C(=O)c1c(O)c3c(c(O)c1C2=O)C[C@@](O)(C(=O)CO)C[C@@H]3O[C@H]1C[C@H](N)[C@H](O)[C@H](C)O1 [Doxorubicin, reference compound] ?
124

Okay, and c1ccc2c(c1)CCCN2CN1CCNCC1 [SF6] ?
121.2

Okay, and Clc1cccc(NCN2CCCc3ccccc32)c1 [SF8] ?
123.4

Okay, and COc1ccc(NCN2CCCc3ccccc32)cc1 [SF12] ?
128

Okay, and c1ccc2c(c1)CCCN2CN1CCCC1 [SF3] ?
102

Okay, and CCN(CC)CN1CCCc2ccccc21 [SF11] ?
200

---

Item-by-item account of activity at 50 µM
Test system: NO generated by LPS-induced macrophages
assay-details: Nitric oxide assay (Griess) in LPS-induced macrophages
Format: cell-based, murine
test-context: Mus musculus, Macrophage, 18 h, 50 µM, LPS 1 µg/mL; read-out: % NO Production (Mean ± SEM)

# example entries with known answers
c1ccc2c(c1)CCCN2CN1CCNCC1; 61.1%
c1ccc2c(c1)CCCN2CN1CCCC1; 23.8%
c1ccc2c(c1)CCCN2CN1CCCCC1; 23.7%
CCN(CC)CN1CCCc2ccccc21; 33.7%
Brc1ccc(NCN2CCCc3ccccc32)cc1; 55.6%

Quick one: activity at 50 µM for CCCN(CCC)CN1CCCc2ccccc21 ?
32%

Okay, and COc1ccc(NCN2CCCc3ccccc32)cc1 ?
26.5%

Okay, and CC(=O)N(CN1CCCc2ccccc21)c1ccc(O)cc1 ?
15.6%

---

assay-details: MTT cytotoxicity against raw macrophages
Assay type: cell-based, albino rats
test-context: albino, rat, primary peritoneal macrophages, mean ± SEM, n = 3
Experimental: The % cell viability of the synthetic library was evaluated in vitro by measuring the mitochondrial dehydrogenase activity (MTT test) on raw macrophages. The cytotoxic potential was assessed by using an MTT 3-(4,5-dimethyl thiazole-2-yl)-2,5- diphenyl tetrazolium bromide assay. […] The formazan crystals were then solubilized in 100 µL DMSO, and the absorbance was measured at 570 nm. […]
Param label: returns YES when IC50 at 24 h < 20 µM, returns NO otherwise, including exact equality.

Brc1ccc(NCN2CCCc3ccccc32)cc1 [SF9]; YES

For c1ccc2c(c1)CCCN2CN1CCOCC1 [SF2] , is the recorded IC50 at 24 h below the cut-off of 20 µM?
NO

Okay, and CCCN(CCC)CN1CCCc2ccccc21 [SF4] ?
YES

Okay, and c1ccc(N(CN2CCCc3ccccc32)c2ccccc2)cc1 [SF7] ?
YES

Okay, and c1ccc2c(c1)CCCN2CN1CCCC1 [SF3] ?
NO

Okay, and CC(=O)N(CN1CCCc2ccccc21)c1ccccc1 [SF10] ?
NO

Okay, and Clc1cccc(NCN2CCCc3ccccc32)c1 [SF8] ?
NO

---

assay-details: MTT cytotoxicity against raw macrophages
Type: cell-based, albino rats
test-context: albino, rat, peritoneal macrophages (raw macrophages); 50 µM, raw macrophages, 24 h, MTT; read-out: % Cell Viability
Param label: returns fulfilled when viability at 24 h, 50 µM < 70%, returns not fulfilled otherwise, including exact equality.

Before answering, review these 5 worked examples.
CCCN(CCC)CN1CCCc2ccccc21; fulfilled
CCN(CC)CN1CCCc2ccccc21; fulfilled
CC(=O)N(CN1CCCc2ccccc21)c1ccc(O)cc1; not fulfilled
CN1CCN(CN2CCCc3ccccc32)CC1; fulfilled
c1ccc2c(c1)CCCN2CN1CCCCC1; fulfilled

For Brc1ccc(NCN2CCCc3ccccc32)cc1 , is the recorded viability at 24 h, 50 µM below the cut-off of 70%?
not fulfilled

Okay, and c1ccc2c(c1)CCCN2CN1CCNCC1 ?
fulfilled

Okay, and CC(=O)N(CN1CCCc2ccccc21)c1ccccc1 ?
not fulfilled

Okay, and COc1cccc2c1C(=O)c1c(O)c3c(c(O)c1C2=O)C[C@@](O)(C(=O)CO)C[C@@H]3O[C@H]1C[C@H](N)[C@H](O)[C@H](C)O1 [Doxorubicin, reference compound] ?
fulfilled

Okay, and c1ccc2c(c1)CCCN2CN1CCOCC1 ?
fulfilled

Okay, and c1ccc(N(CN2CCCc3ccccc32)c2ccccc2)cc1 ?
not fulfilled

Okay, and COc1ccc(NCN2CCCc3ccccc32)cc1 ?
fulfilled

---

assay-details: Total reducing power (TRP) assay
Item-by-item account of Total reducing power (TRP)
A number alone suffices; assume µg/AAE.

c1ccc(N(CN2CCCc3ccccc32)c2ccccc2)cc1; 103.18
COc1ccc(NCN2CCCc3ccccc32)cc1; 84.57
c1ccc2c(c1)CCCN2CN1CCCCC1; 33.22

--- query ---
Quick one: Total reducing power (TRP) for CN1CCN(CN2CCCc3ccccc32)CC1 ?
104.7

---

System: raw macrophages
assay-details: MTT cytotoxicity against raw macrophages
Format: cell-based, albino rats
test-context: mean ± SEM, n = 3
Item-by-item account of pIC50
The meaning of pIC50 here: minus log10 of the concentration in molar units.

c1ccc2c(c1)CCCN2CN1CCCCC1; 5.21

--- query ---
Quick one: pIC50 for CCCN(CCC)CN1CCCc2ccccc21 ?
5.14

---

System: Hep-2C cells
assay-details: MTT assay against Hep-2C cells
Assay type: cell-based, Human
test-context: 72 h; listed as cisplatin; read-out: IC50 (Mean ± SEM) Hep-2C Cells
assay-endpoint: IC50 (µM)
A number alone suffices; assume µM.

Quick one: IC50 for N.N.[Cl][Pt][Cl] [Cisplatin, reference compound] ?
14.6

---

Item-by-item account of % DPPH Scavenging Activity
assay-details: DPPH free radical scavenging assay
test-context: 200 µg/mL; mean ± SEM, n = 3
Method: The % free radical scavenging activity (%FRSA) of the synthetic compounds was evaluated by the discoloration of an unstable DPPH reagent to the stable yellow-colored 2,2-diphenyl-1-picrylhydrazine molecule by accepting one electron from a donor antioxidant; the mechanism is shown in Scheme 2. The % FRSA (free radical scavenging activity) of the synthetic compounds was determined by using the method of Tai et al. with slight modifications. […] Abs = sample’s absorbance; Abc = control’s absorbance.
A number alone suffices; assume %.

COc1ccc(NCN2CCCc3ccccc32)cc1; 64.20

Quick one: % DPPH Scavenging Activity for O=c1c(O)c(-c2ccc(O)c(O)c2)oc2cc(O)cc(O)c12 [Quercetin, reference compound] ?
81.43

Okay, and c1ccc2c(c1)CCCN2CN1CCCC1 ?
27.19

Okay, and c1ccc2c(c1)CCCN2CN1CCCCC1 ?
62.45

Okay, and Clc1cccc(NCN2CCCc3ccccc32)c1 ?
62.35

Okay, and CN1CCN(CN2CCCc3ccccc32)CC1 ?
45.24

Okay, and CCN(CC)CN1CCCc2ccccc21 ?
43.93

Okay, and Brc1ccc(NCN2CCCc3ccccc32)cc1 ?
67.46

Okay, and CC(=O)N(CN1CCCc2ccccc21)c1ccc(O)cc1 ?
19.34

Okay, and O=C1O[C@H]([C@@H](O)CO)C(O)=C1O [Ascorbic Acid, reference compound] ?
89.01

Okay, and c1ccc2c(c1)CCCN2CN1CCNCC1 ?
66.61
